Test system: multidrug resistant MES-SA/Dx5 human uterine sarcoma cells
Experiment: Cell viability, MES-SA/Dx5
Format: cell-based
Condition set: read-out: ED50 MES-SA/Dx5
Readout kind: EC50 (nM)

• COC(=O)Nc1nc2ccc(C(=O)c3ccccc3)cc2[nH]1 = 790
• CCCSc1ccc2nc(NC(=O)OC)[nH]c2c1 = 840
• COC(=O)Nc1nc2ccc(Sc3ccccc3)cc2[nH]1 = 1130

----------
Experiment: Combination with paclitaxel, Cyquant cell growth inhibition, CompuSyn median-dose effect analysis
Format: cell-based
Condition set: Fa 0.50; alone or in combination; read-out: Dose FBZ
Readout kind: EC50

• COC(=O)Nc1nc2ccc(Sc3ccccc3)cc2[nH]1 = 6.21 µM

----------
Tested on: paclitaxel-resistant DU145-TR prostate cancer cells
Experiment: Cyquant cell viability assay, DU145-TR
Format: cell-based, human
Condition set: Homo sapiens, 72 h, read-out: ED50 DU145-TR
Description: The cytotoxic effects of paclitaxel, fenbendazole, and albendazole were compared in paclitaxel-resistant PC3-TR and DU145-TR prostate cancer cells with their paclitaxel-sensitive counterparts, PC3 and DU145 cells. […] Cell viability was measured using Cyquant assay, and percent control was calculated by dividing the fluorescent reading from drug-treated cells with those from vehicle-treated cells, indicating percentage of cell survival.
pEC50: −log10 of the molar value.
Readout kind: pEC50

* CCCSc1ccc2nc(NC(=O)OC)[nH]c2c1 [Albendazole, albendazole] | 5.97
